Where these numbers come from: patent US20200223889A1

# tgt: human melanocortin 1 receptor (human, UniProt Q01726 1-317)
# Sequence (Q01726 whole entry): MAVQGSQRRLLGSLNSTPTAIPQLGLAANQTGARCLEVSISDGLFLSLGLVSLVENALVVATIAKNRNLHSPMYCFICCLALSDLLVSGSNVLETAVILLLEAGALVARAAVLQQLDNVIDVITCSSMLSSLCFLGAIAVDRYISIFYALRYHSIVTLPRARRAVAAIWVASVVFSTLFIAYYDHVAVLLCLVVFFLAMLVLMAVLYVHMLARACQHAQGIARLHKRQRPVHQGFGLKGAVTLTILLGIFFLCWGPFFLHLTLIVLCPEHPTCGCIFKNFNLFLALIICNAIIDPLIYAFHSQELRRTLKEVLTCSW
# experimental protocol: cell-based or functional assay
Positions of bridges follow the written chain, without caps; N, C: chain ends. Non-standard residues stand in square brackets, D forms with d.
assay metric: MC1R cAMP EC50 (nM)
# value in nM; strip the unit string

# get_value(readout='MC1R cAMP EC50', item= CXHFRWCXHFRW (βAla 2, 8; D-Phe 4, 10; disulphide Cys1-Cys7; head-to-tail amide Cys1-Trp12, also called c[c[Cys-βAla-His-D-Phe-Arg-Trp-Cys]-βAla-His-D-Phe-Arg-Trp]) [Chem. 25] ) 0.34

Bench note: what MC1R cAMP EC50 did cyclo(CAH[dF]KWCAH[dF]KW) (disulfide 1-7; SMILES C[C@@H]1NC(=O)[C@@H]2CSSC[C@H](NC(=O)[C@H](Cc3c[nH]c4ccccc34)NC(=O)[C@H](CCCCN)NC(=O)[C@@H](Cc3ccccc3)NC(=O)[C@H](Cc3c[nH]cn3)NC1=O)C(=O)N[C@@H](C)C(=O)N[C@@H](Cc1c[nH]cn1)C(=O)N[C@H](Cc1ccccc1)C(=O)N[C@@H](CCCCN)C(=O)N[C@@H](Cc1c[nH]c3ccccc13)C(=O)N2, also called c[c[Cys-Ala-His-D-Phe-Lys-Trp-Cys]-Ala-His-D-Phe-Lys-Trp]) [Chem. 15] show? 5.43

I would be grateful if you could share the reported MC1R cAMP EC50 for cyclo(CEH[dF]RWCEH[dF]RW) (disulfide 1-7; SMILES N=C(N)NCCC[C@@H]1NC(=O)[C@@H](Cc2ccccc2)NC(=O)[C@H](Cc2c[nH]cn2)NC(=O)[C@H](CCC(=O)O)NC(=O)[C@@H]2CSSC[C@H](NC(=O)[C@H](Cc3c[nH]c4ccccc34)NC1=O)C(=O)N[C@@H](CCC(=O)O)C(=O)N[C@@H](Cc1c[nH]cn1)C(=O)N[C@H](Cc1ccccc1)C(=O)N[C@@H](CCCNC(=N)N)C(=O)N[C@@H](Cc1c[nH]c3ccccc13)C(=O)N2, also called c[c[Cys-Glu-His-D-Phe-Arg-Trp-Cys]-Glu-His-D-Phe-Arg-Trp]) [Chem. 51] . 2.69
